- target or test system: ATM enzyme (human) (Homo sapiens, UniProt Q13315)
- Sequence (Q13315 whole entry): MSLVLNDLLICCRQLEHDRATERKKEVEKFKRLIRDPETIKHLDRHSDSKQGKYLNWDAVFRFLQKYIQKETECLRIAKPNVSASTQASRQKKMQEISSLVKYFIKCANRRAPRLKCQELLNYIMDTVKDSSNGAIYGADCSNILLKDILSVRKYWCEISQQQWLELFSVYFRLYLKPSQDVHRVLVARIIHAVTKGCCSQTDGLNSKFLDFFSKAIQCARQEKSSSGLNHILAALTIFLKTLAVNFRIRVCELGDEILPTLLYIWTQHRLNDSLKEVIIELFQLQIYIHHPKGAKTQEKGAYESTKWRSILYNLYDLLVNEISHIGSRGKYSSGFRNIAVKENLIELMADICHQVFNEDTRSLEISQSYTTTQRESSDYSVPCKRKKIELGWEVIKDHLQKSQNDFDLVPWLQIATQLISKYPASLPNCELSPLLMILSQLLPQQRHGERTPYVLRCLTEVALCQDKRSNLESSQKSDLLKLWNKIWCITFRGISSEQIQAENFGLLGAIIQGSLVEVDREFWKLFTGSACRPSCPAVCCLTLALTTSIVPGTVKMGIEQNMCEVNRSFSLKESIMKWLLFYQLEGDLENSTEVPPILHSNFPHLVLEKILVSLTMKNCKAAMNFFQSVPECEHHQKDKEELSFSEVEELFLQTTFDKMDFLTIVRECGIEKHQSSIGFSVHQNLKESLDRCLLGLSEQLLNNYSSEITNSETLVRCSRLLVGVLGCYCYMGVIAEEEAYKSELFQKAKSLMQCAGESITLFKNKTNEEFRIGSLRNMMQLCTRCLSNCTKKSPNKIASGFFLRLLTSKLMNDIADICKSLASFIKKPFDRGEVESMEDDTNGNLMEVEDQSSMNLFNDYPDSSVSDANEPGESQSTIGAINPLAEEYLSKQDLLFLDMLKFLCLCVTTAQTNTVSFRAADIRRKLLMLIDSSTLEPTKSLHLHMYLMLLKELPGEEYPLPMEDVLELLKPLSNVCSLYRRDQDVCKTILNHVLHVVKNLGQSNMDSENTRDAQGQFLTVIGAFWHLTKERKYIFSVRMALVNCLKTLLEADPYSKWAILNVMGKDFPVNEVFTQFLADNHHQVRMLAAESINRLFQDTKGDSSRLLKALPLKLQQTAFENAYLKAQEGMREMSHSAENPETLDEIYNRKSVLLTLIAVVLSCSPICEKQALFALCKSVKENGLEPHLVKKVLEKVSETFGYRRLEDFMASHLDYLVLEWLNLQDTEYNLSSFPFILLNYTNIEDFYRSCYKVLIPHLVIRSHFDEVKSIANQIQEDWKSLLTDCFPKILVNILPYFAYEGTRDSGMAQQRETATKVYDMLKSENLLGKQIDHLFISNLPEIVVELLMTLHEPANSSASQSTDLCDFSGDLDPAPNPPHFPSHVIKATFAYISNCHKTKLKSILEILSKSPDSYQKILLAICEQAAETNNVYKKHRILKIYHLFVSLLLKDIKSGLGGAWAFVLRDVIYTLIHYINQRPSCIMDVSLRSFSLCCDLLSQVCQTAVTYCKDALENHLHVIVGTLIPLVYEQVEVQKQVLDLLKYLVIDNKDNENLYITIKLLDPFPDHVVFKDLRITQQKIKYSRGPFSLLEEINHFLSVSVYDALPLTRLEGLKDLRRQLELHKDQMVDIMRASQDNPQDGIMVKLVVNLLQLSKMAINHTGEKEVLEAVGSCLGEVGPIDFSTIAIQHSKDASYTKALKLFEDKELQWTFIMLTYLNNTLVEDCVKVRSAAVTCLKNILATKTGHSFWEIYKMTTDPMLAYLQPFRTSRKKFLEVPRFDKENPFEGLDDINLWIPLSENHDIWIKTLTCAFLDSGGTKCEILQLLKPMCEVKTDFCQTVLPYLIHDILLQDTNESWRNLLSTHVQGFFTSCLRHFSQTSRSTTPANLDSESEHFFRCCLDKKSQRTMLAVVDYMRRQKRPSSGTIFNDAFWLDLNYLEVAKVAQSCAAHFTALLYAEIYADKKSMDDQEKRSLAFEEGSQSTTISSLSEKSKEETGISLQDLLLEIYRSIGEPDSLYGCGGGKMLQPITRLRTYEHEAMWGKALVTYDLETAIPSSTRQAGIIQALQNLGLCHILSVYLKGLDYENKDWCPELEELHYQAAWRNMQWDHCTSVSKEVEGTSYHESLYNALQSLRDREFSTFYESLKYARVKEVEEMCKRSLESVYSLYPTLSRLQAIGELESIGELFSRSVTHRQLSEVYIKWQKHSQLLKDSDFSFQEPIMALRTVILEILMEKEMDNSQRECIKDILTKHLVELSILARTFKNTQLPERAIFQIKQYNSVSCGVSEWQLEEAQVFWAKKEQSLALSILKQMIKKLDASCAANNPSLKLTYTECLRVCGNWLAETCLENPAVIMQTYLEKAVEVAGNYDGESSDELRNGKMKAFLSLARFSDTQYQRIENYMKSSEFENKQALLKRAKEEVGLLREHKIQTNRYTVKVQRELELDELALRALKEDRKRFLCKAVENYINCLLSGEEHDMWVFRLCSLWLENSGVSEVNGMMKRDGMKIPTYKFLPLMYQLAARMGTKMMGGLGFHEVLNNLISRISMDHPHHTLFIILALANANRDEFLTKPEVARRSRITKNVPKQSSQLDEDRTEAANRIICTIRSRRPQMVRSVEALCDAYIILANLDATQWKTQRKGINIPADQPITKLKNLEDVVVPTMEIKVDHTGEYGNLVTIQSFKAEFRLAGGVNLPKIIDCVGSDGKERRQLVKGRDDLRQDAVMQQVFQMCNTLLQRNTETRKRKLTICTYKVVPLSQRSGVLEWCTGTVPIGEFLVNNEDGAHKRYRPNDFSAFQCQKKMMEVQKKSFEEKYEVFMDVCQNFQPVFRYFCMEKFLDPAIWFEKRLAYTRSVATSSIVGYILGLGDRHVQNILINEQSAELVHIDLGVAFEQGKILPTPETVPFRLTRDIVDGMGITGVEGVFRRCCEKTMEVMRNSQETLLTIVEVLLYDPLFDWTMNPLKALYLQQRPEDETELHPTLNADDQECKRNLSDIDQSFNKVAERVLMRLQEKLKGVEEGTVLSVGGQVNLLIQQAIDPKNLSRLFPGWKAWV
- protocol notes: ATM kinase assay (HTRF, GST-cMyc-p53 substrate)
- Format: biochemical
- condition info: 0.5 h; C 0.001 μm (final concentration of compound); read-out: Inh (%) of ATM kinase
Items are presented alongside their recorded inhibition at 0.001 µM.
quantity: inhibition at 0.001 µM (%)

C[C@@H]1CN(c2nnc3cnc4ccc(-c5ccc(N6CCC(N(C)C)CC6)cc5)cc4n23)C[C@H](C)N1C ... 38
C[C@@H]1CN(c2nnc3cnc4ccc(-c5ccc(OCCCN(C)C)c(C(F)(F)F)c5)cc4n23)C[C@H](C)N1C ... 60
C[C@@H]1CN(c2nnc3cnc4ccc(-c5ccc(OCCCN(C)C)cc5)cc4n23)C[C@H](C)N1C ... 60
CN(C)C1CCN(c2ccc(-c3ccc4ncc5nnc(C6CCOCC6)n5c4n3)cc2)CC1 ... 39

----------
- target or test system: ATM enzyme (human) (Homo sapiens, UniProt Q13315)
- protocol notes: ATM kinase assay (HTRF, GST-cMyc-p53 substrate)
- Type: biochemical
- condition info: 0.5 h; C 0.01 μm (final concentration of compound); read-out: Inh (%) of ATM kinase
quantity: inhibition at 0.01 µM (%)

CN(C)C1CCN(c2ccc(-c3ccc4ncc5nnc(C6CCOCC6)n5c4c3)cc2Cl)CC1 ... 67
CN(C)C1CCN(c2ccc(-c3ccc4ncc5nnc(C6CCOCC6)n5c4n3)cc2)CC1 ... 82
CN(C)C1CCN(c2ccc(-c3ccc4ncc5nnc(C6CCOCC6)n5c4c3)cc2)CC1 ... 50

----------
- target or test system: UniProt:Q13315
- protocol notes: ATM kinase assay (HTRF, GST-cMyc-p53 substrate)
- Format: biochemical
- condition info: 0.5 h; C 1 μm (final concentration of compound); read-out: Inh (%) of ATM kinase
quantity: inhibition at 1 µM (%)

CN(C)C1CCN(c2ccc(-c3ccc4ncc5nnc(C6CCOCC6)n5c4c3)c(F)c2)CC1 ... 100
c1ccc(-c2ccc3ncc4nnc(C5CCOCC5)n4c3c2)cc1 ... 62
CNC1CCN(c2ccc(-c3ccc4ncc5nnc(CN6CCOCC6)n5c4c3)cc2)CC1 ... 100
CN(C)CCCOc1ccc(-c2ccc3ncc4nnc(N5CCOCC5)n4c3c2)cc1 ... 100
CCNC1CCN(c2ccc(-c3ccc4ncc5nnc(C6CCOCC6)n5c4c3)cc2)CC1 ... 100
CN(C)CCCNc1ccc(-c2ccc3ncc4nnc(C5CCOCC5)n4c3c2)cc1 ... 85
CN(C)C1CCN(c2ccc(-c3ccc4ncc5nnc(C6CCOCC6)n5c4c3)cc2)CC1 ... 100
CN(C)C1CCN(c2ccc(-c3ccc4ncc5nnc(C6CCOCC6)n5c4c3)c(Cl)c2)CC1 ... 100
C[C@@H]1CN(c2ccc(-c3ccc4ncc5nnc(C6CCOCC6)n5c4c3)cc2)C[C@H](C)N1C ... 96
CN(C)C1CCN(c2ccc(-c3ccc4ncc5nnc(CN6CCOCC6)n5c4c3)cc2)CC1 ... 100
CN(C)C1CCN(c2ccc(-c3ccc4ncc5nnc(C6CCOCC6)n5c4c3)nc2)CC1 ... 98
CN(C)C1CCN(c2ccc(-c3cc4c(cn3)ncc3nnc(C5CCOCC5)n34)cc2)CC1 ... 19
NC1CCN(c2ccc(-c3ccc4ncc5nnc(C6CCOCC6)n5c4c3)cc2)CC1 ... 99
CN(C)CCCOc1ccc(-c2ccc3ncc4nnc(CN5CCOCC5)n4c3c2)cc1 ... 99
c1ccc(-c2cc3c(cn2)ncc2nnc(C4CCOCC4)n23)cc1 ... 19
CN1CCN(c2ccc(-c3ccc4ncc5nnc(C6CCOCC6)n5c4c3)cc2)CC1 ... 93
CN(C)CCCOc1ccc(-c2ccc3ncc4nnc(-c5c[nH]cn5)n4c3c2)cc1 ... 97

----------
- target or test system: ATM enzyme (human) (Homo sapiens, UniProt Q13315)
- protocol notes: ATM kinase assay (HTRF, GST-cMyc-p53 substrate)
- Type: biochemical
- condition info: 0.5 h; C 0.01 μm (final concentration of compound); read-out: Inh (%) of ATM kinase
quantity: inhibition at 0.01 µM

CN(C)CCCOc1ccc(-c2ccc3ncc4nnc(-c5c[nH]cn5)n4c3c2)cc1 ... 34%
C[C@@H]1CN(c2nnc3cnc4ccc(-c5ccc(OCCCN(C)C)c(C(F)(F)F)c5)cc4n23)C[C@H](C)N1C ... 98%
CN(C)C1CCN(c2ccc(-c3ccc4ncc5nnc(C6CCOCC6)n5c4c3)cn2)CC1 ... 33%
CN(C)C1CCN(c2ccc(-c3ccc4ncc5nnc(CN6CCOCC6)n5c4c3)cc2)CC1 ... 37%

----------
- target or test system: ATM enzyme (human) (Homo sapiens)
- protocol notes: ATM kinase assay (HTRF, GST-cMyc-p53 substrate)
- Type: biochemical
- condition info: 0.5 h; C 1 μm (final concentration of compound); read-out: Inh (%) of ATM kinase
Items are presented alongside their recorded inhibition at 1 µM.
quantity: inhibition at 1 µM

CNC1CCN(c2ccc(-c3ccc4ncc5nnc(CN6CCOCC6)n5c4n3)cc2)CC1 [Example 77] ... 97%
CN(C)C1CCC(c2ccc(-c3ccc4ncc5nnc(C6CCOCC6)n5c4c3)cc2)CC1 (centres unmarked) [Example 18] ... 34%
C[C@@H]1CN(c2nnc3cnc4ccc(-c5ccc(OCCCN(C)C)c(C(F)(F)F)c5)cc4n23)C[C@H](C)N1C [Example 57] ... 100%
CN(C)C1CCN(c2ccc(-c3ccc4ncc5nnc(C6CCOCC6)n5c4c3)cn2)CC1 [Example 15] ... 98%
CN(C)C1CCN(c2ccc(-c3ccc4ncc5nnc(C6CCOCC6)n5c4n3)cc2)CC1 [Example 72] ... 99%
CN(C)Cc1ccc(-c2cc3c(cn2)ncc2nnc(C4CCOCC4)n23)cc1 [Example 68] ... 0%
NC1CCN(c2ccc(-c3ccc4ncc5nnc(C6CCOCC6)n5c4n3)cc2)CC1 [Example 73] ... 100%
CNC1CCN(c2ccc(-c3ccc4ncc5nnc(C6CCOCC6)n5c4n3)cc2)CC1 [Example 74] ... 100%

----------
- target or test system: ATM enzyme (human) (Homo sapiens)
- protocol notes: ATM kinase assay (HTRF, GST-cMyc-p53 substrate)
- Type: biochemical
- condition info: 0.5 h; C 1 μm (final concentration of compound); read-out: Inh (%) of ATM kinase
quantity: inhibition at 1 µM (%)

CN(C)C1CCN(c2ccc(-c3ccc4ncc5nnc(C6CCOCC6)n5c4c3)c(C(F)(F)F)c2)CC1 ... 74
CN(C)CCCOc1ccc(-c2ccc3ncc4nnc(C5CCOCC5)n4c3n2)cc1 ... 100
CN(C)CC1CCN(c2ccc(-c3ccc4ncc5nnc(C6CCOCC6)n5c4c3)cc2)CC1 ... 77
CN(C)C1CCN(c2ccc(-c3ccc4ncc5nnc(C6CCOCC6)n5c4c3)cc2Cl)CC1 ... 100
CNC1CCN(c2ccc(-c3cc4c(cn3)ncc3nnc(C5CCOCC5)n34)cc2)CC1 ... 4
CN(C)CCOc1ccc(-c2ccc3ncc4nnc(C5CCOCC5)n4c3c2)cc1 ... 72
CCNC1CCN(c2ccc(-c3ccc4ncc5nnc(C6CCOCC6)n5c4n3)cc2)CC1 ... 100
CN(C)C1CCN(c2ccc(-c3ccc4ncc5nnc(C6CCOCC6)n5c4c3)cc2F)CC1 ... 100
